// values below are reported residual activity
experimental-target: CaMK1 (human)
assay-summary: radiometric filter-binding kinase assay
recorded-conditions: compound 0.1 µM
quantity-name: residual activity

[[record]]
compound = "CN1CCN(CCOc2cc(OC3CCOCC3)c3c(Nc4c(Cl)ccc5c4OCO5)ncnc3c2)CC1"
result = "106%"

[[record]]
compound = "COc1ccc(N(C(=O)Nc2c(C)cccc2C)c2cc(Nc3ccc(N4CCN(C)CC4)cc3)ncn2)c(OC)c1"
result = "90%"

[[record]]
compound = "O=C(O)c1ccc(-c2c[nH]c3ncc(-c4ccccc4)cc23)cc1C1CCCC1"
result = "104%"

[[record]]
compound = "Cc1ccc(Sc2cnc(Nc3cccc(Br)n3)s2)cc1C(=O)N1CCN(C(=O)CN)CC1"
result = "62%"

[[record]]
compound = "O=C(NCCCNc1nc(Nc2cccc(CN3CCOCC3)c2)ncc1C1CC1)C1CCC1"
result = "104%"

[[record]]
compound = "CNC(=O)C1[C@H]2O[C@@](C)([C@@H]1N)n1c3ccccc3c3c4c(c5c6ccccc6n2c5c31)C(=O)NC4 (stereo partly specified)"
result = "25%"

[[record]]
compound = "CNc1nc(-c2ccc3c(N)n[nH]c3c2)cc(N2C[C@@H](C(=O)NC3CCCCC3)CC[C@H]2C)n1"
result = "112%"

[[record]]
compound = "CCc1cncnc1N1CCN(Cc2nc3cc(C(F)(F)F)ccc3[nH]2)CC1"
result = "106%"

[[record]]
compound = "CCn1c(-c2nonc2N)nc2cncc(CNC3CCNCC3)c21"
result = "119%"

[[record]]
compound = "O=C(Nc1nc2cc(C(F)(F)F)cc(NC3CC3)n2n1)c1cccnc1"
result = "128%"

[[record]]
compound = "COc1ccc(-n2ncc3cnc(Nc4cc(OC)c(OC)c(OCCCN5CCN(C)CC5)c4)nc32)cc1"
result = "67%"

[[record]]
compound = "Cn1c(=O)c2c(ncn2C)n(C)c1=O"
result = "90%"

[[record]]
compound = "O=C(Nc1ccccc1-c1cn2c(CN3CCNCC3)csc2n1)c1cnc2ccccc2n1"
result = "109%"

[[record]]
compound = "COc1ccc2c(c1)c1c3c(c4c5ccccc5n(C)c4c1n2CC(O)CN(C)C)C(=O)NC3=O (stereo unspecified)"
result = "79%"

[[record]]
compound = "Cc1cccc(-c2nn(C(=S)Nc3ccccc3)cc2-c2ccnc3ccccc23)n1"
result = "103%"

[[record]]
compound = "C/C(=C1/C(=O)Nc2ccc(NC(N)=O)cc21)c1ccc[nH]1"
result = "103%"

[[record]]
compound = "NC(=O)Nc1ccc2c(c1)/C(=C/c1cc(-c3cccnc3)c[nH]1)C(=O)N2"
result = "112%"

[[record]]
compound = "O=C(N[C@@H](COc1ccc2[nH]c(=O)[nH]c2c1)c1ccccc1)c1cccn(Cc2ccc(F)c(F)c2)c1=O"
result = "95%"

[[record]]
compound = "NC1(c2ccc(-c3nc4ccn5c(=O)[nH]nc5c4cc3-c3ccccc3)cc2)CCC1"
result = "108%"

[[record]]
compound = "COc1cc(O)c2c(c1)[C@H]1OC1C[C@H](O)[C@H](O)C(=O)/C=C\\C[C@H](C)OC2=O (stereo partly specified)"
result = "96%"

[[record]]
compound = "Cc1cc(NC(=O)c2cccc(NC(=O)/C=C/CN(C)C)c2)ccc1Nc1nccc(-c2cccnc2)n1"
result = "92%"

